# assay-name: Osmolality of aqueous solution at 300 mg I/ml
# Assay type: physicochemical
# cond: 300 mg I/ml (Table II)
The entries below are paired with their reported OSMOLALITY mOsm/kg at 300 mg I/ml.
Numeric answer only, unit mOsm/kg assumed.

Consider the following illustrative entries.
QUERY: Looking for the measured OSMOLALITY mOsm/kg at 300 mg I/ml of CN(C(=O)CN(CCO)CC(=O)Nc1c(I)c(C(=O)NCC(O)CO)c(I)c(C(=O)NCC(O)CO)c1I)c1c(I)c(C(=O)NCC(O)CO)c(I)c(C(=O)NCC(O)CO)c1I (centres unmarked) , can you help?
RESULT: 157

QUERY: // repeat for O=C(CN(CC(=O)Nc1c(I)c(C(=O)NCC(O)CO)c(I)c(C(=O)NCC(O)CO)c1I)CC(O)CO)Nc1c(I)c(C(=O)NCCO)c(I)c(C(=O)NCCO)c1I (centres unmarked) and report
RESULT: 137

QUERY: Subsequent entry: O=C(CN(CCO)CC(=O)Nc1c(I)c(C(=O)NCC(O)CO)c(I)c(C(=O)NCC(O)CO)c1I)Nc1c(I)c(C(=O)NCC(O)CO)c(I)c(C(=O)NCC(O)CO)c1I (centres unmarked)
RESULT: 167

QUERY: Also, CN(C(=O)CN(CCO)CC(=O)Nc1c(I)c(C(=O)NC(CO)C(O)CO)c(I)c(C(=O)NC(CO)C(O)CO)c1I)c1c(I)c(C(=O)NCCO)c(I)c(C(=O)NCCO)c1I (centres unmarked) please.
RESULT: 164

Now turn to the next molecule.
QUERY: // OSMOLALITY mOsm/kg at 300 mg I/ml lookup, key: COCCN(CC(=O)Nc1c(I)c(C(=O)NCC(O)CO)c(I)c(C(=O)NCC(O)CO)c1I)CC(=O)Nc1c(I)c(C(=O)NCC(O)CO)c(I)c(C(=O)NCC(O)CO)c1I (centres unmarked)
RESULT: 185
